assay: Partition coefficient (logP); assay type: physicochemical; settings: octanol/water; read-out: logP
Field: logP. Provide a value for each of the compounds that follow.

Input: Entry under review: Cc1cn(C2CC(N=[N+]=[N-])C(COC(=O)OCCCCCCCCO)O2)c(=O)[nH]c1=O (centres undefined) . Reported logP?
Output: 1.14

Input: Entry under review: Cc1cn(C2CC(N=[N+]=[N-])C(COC(=O)OCCCCCO)O2)c(=O)[nH]c1=O (centres undefined) . Reported logP?
Output: -0.45

Input: Entry under review: Cc1cn(C2CC(N=[N+]=[N-])C(COC(=O)NCCCN)O2)c(=O)[nH]c1=O (centres undefined) . Reported logP?
Output: -1.19

Input: Entry under review: Cc1cn(C2CC(N=[N+]=[N-])C(COC(=O)CCCC(=O)OC(C)(C)C)O2)c(=O)[nH]c1=O (centres undefined) . Reported logP?
Output: 1.17

Input: Entry under review: Cc1cn(C2CC(N=[N+]=[N-])C(COC(=O)NCCCO)O2)c(=O)[nH]c1=O (centres undefined) . Reported logP?
Output: -1.24

Input: Entry under review: Cc1cn(C2CC(N=[N+]=[N-])C(COC(=O)NCCCC(=O)O)O2)c(=O)[nH]c1=O (centres undefined) . Reported logP?
Output: -0.81

Input: Entry under review: Cc1cn(C2CC(N=[N+]=[N-])C(COC(=O)NCCCC(=O)OC(C)(C)C)O2)c(=O)[nH]c1=O (centres undefined) . Reported logP?
Output: 0.88

Input: Entry under review: Cc1cn(C2CC(N=[N+]=[N-])C(COC(=O)CCCO)O2)c(=O)[nH]c1=O (centres undefined) . Reported logP?
Output: -0.95

Input: Entry under review: Cc1cn(C2CC(N=[N+]=[N-])C(COC(=O)OCCCN)O2)c(=O)[nH]c1=O (centres undefined) . Reported logP?
Output: -0.93

Input: Entry under review: Cc1cn(C2CC(N=[N+]=[N-])C(COC(=O)OCCCC(=O)O)O2)c(=O)[nH]c1=O (centres undefined) . Reported logP?
Output: -0.55

Input: Entry under review: Cc1cn(C2CC(N=[N+]=[N-])C(COC(=O)OCCCCCCO)O2)c(=O)[nH]c1=O (centres undefined) . Reported logP?
Output: 0.08

Input: Entry under review: Cc1cn(C2CC(N=[N+]=[N-])C(COC(=O)OCCCC(=O)OC(C)(C)C)O2)c(=O)[nH]c1=O (centres undefined) . Reported logP?
Output: 1.14

Input: Entry under review: CCCCOC(=O)OCC1OC(n2cc(C)c(=O)[nH]c2=O)CC1N=[N+]=[N-] (centres undefined) . Reported logP?
Output: 1.02

Input: Entry under review: Cc1cn(C2CC(N=[N+]=[N-])C(COC(=O)CCCN)O2)c(=O)[nH]c1=O (centres undefined) . Reported logP?
Output: -0.9

The measurements presented in this section are drawn from ChEMBL document CHEMBL1134362.
